Reference source: paper PMC3640046

Known Kd of a selection of binders
target: T1, second PDZ domain of human Dlg (hDlg/hDlg1/SAP-97) (human, UniProt Q12959 318-406, 15N labelled in the titrations with the peptides); assay: SPR; peptides injected in triplicate at 3.125, 6.25, 12.5, 25, 50, 100 and 200 µM; kinetic analysis (1:1 interaction model with a mass transport term) and steady state analysis; details: both partners purified
T1 construct: also called hDlgPDZ2; PDZ domain 2 of hDlg; source: bacterial expression, FPLC purification
T1 sequence (Q12959 318-406): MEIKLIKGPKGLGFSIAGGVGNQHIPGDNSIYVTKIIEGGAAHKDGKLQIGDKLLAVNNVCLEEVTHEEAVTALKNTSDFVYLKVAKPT
No end group written: not given here.
Lab book: enter the figure in µM, no units written.

{"binder": "Ac-RNETQV (also called E6CT6 peptide) [E6CT6, N-terminally truncated 6mer peptide of the HPV 51 E6 C-terminus (Ac-RNETQV)]", "endpoint.unit": "µM", "reading": 28.3}

Identify measured Kd associated with Ac-QRTRQRNETQV (HPV 51 E6 residues 141 to 151; also called E6CT11 peptide) [E6CT11, 11mer peptide representing the complete disordered C-terminus of HPV 51 E6 (Ac-QRTRQRNETQV)] 9.6
